Test system: E. coli
Assay: Minimum inhibitory concentration, disk diffusion susceptibility testing
Assay type: cell-based
Settings: E. coli
For each record, write down the corresponding Minimum Inhibitory Concentration.

Report measured Minimum Inhibitory Concentration on E. coli; entry: `CS(=O)(=O)c1ccc([C@@H](O)[C@@H](CF)NC(=O)CCl)cc1`
3 µg/mL

# assay system E. coli: give Minimum Inhibitory Concentration of CC(C(=O)NC(CF)C(O)c1ccc(S(C)(=O)=O)cc1)C(F)(F)F (mixture of isomers) [A2]
7 µg/mL

State, for E. coli, measured Minimum Inhibitory Concentration of the compound listed here: CC(C)C(=O)N[C@H](CF)[C@H](O)c1ccc(S(C)(=O)=O)cc1 [A1]
5 µg/mL

Identify measured Minimum Inhibitory Concentration obtained with E. coli for CC(F)C(=O)NC(CF)C(O)c1ccc(S(C)(=O)=O)cc1 (mixture of isomers) [E5 + I5 (Racemic Mixture)] .
5 µg/mL

Lab note: record Minimum Inhibitory Concentration of CC(Cl)C(=O)NC(CF)C(O)c1ccc(S(C)(=O)=O)cc1 (mixture of isomers) [E2 + I2 (Racemic Mixture)] tested on E. coli.
3 µg/mL

###

System: S. aureaus
Test: Minimum inhibitory concentration, disk diffusion susceptibility testing
Format: cell-based
Result Type: Minimum Inhibitory Concentration (µg/mL)
I only need the number, in µg/mL, no unit after it.

# return recorded Minimum Inhibitory Concentration for input CC(F)C(=O)NC(CF)C(O)c1ccc(S(C)(=O)=O)cc1 (mixture of isomers) [E5 + I5 (Racemic Mixture)]
5

Quick one: give measured Minimum Inhibitory Concentration for CC(Cl)C(=O)NC(CF)C(O)c1ccc(S(C)(=O)=O)cc1 (mixture of isomers) [E2 + I2 (Racemic Mixture)]
2

Give the value of Minimum Inhibitory Concentration reported for the following: CC(C(=O)NC(CF)C(O)c1ccc(S(C)(=O)=O)cc1)C(F)(F)F (mixture of isomers)
7

Identify measured Minimum Inhibitory Concentration associated with `CS(=O)(=O)c1ccc([C@@H](O)[C@@H](CF)NC(=O)CCl)cc1`
2

Check the records and state Minimum Inhibitory Concentration for `CC(C)C(=O)N[C@H](CF)[C@H](O)c1ccc(S(C)(=O)=O)cc1`
3
